Molecular target: Oxytocin receptor (Homo sapiens)
Sequence (P30559 whole entry): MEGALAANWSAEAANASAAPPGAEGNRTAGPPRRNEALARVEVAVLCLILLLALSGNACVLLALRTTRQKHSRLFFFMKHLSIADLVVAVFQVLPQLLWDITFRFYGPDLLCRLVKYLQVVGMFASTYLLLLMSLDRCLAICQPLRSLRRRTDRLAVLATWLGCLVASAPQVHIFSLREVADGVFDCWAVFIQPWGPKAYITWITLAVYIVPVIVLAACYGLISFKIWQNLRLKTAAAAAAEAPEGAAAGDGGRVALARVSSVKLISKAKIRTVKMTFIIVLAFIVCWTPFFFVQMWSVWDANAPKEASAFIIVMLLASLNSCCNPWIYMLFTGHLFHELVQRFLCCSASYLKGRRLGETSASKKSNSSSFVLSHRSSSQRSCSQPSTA
measured property: pKd
In plain terms, pKd is the concentration in mol/L turned into minus its base-10 logarithm.

Enquiry: Given the entry CCN1\C(=C/C=C/C=C/C2=[N+](CC)c3cc(S(=O)(=O)[O-])ccc3C2(C)C)C(C)(CCCC(=O)NCCOCCOCCOCCOCCOCCOCCOCCOCc2nnc(N3CC(Oc4ccc(F)cc4Cl)C3)n2-c2ccc(OC)nc2)c2cc(S(=O)(=O)O)ccc21.O=C(O)C(F)(F)F (centres undefined) , report its measured pKd.
Return: 8.73

Enquiry: What do you have for "O=C(CCCCCNC(=O)c1ccc(-c2c3ccc(=O)cc-3oc3cc(O)ccc23)c(C(=O)O)c1)NCCNC(=O)CCc1ccc(S(=O)(=O)N(CC(=O)N/N=C2\C(=O)Nc3ccccc32)c2ccc(Cl)cc2)cc1" ?
Return: 8.76

Enquiry: How about this compound: "COc1ccc(-n2c(COCCOCCOCCOCCOCCOCCOCCOCCNC(=O)CCCCCNC(=O)c3ccc(-c4c5ccc(=O)cc-5oc5cc(O)ccc45)c(C(=O)O)c3)nnc2N2CC(Oc3ccc(F)cc3Cl)C2)cn1.O=C(O)C(F)(F)F"
Return: 8.69

Enquiry: Likewise for CCN1\C(=C/C=C/C=C/C2=[N+](CC)c3cc(S(=O)(=O)[O-])ccc3C2(C)C)C(C)(CCCC(=O)NCCNC(=O)CCc2ccc(S(=O)(=O)N(CC(=O)N/N=C3\C(=O)Nc4ccccc43)c3ccc(Cl)cc3)cc2)c2cc(S(=O)(=O)O)ccc21 (centres undefined) ?
Return: 8.86

###

Biological target: Oxytocin receptor (Homo sapiens, UniProt P30559)
Sequence (P30559 whole entry): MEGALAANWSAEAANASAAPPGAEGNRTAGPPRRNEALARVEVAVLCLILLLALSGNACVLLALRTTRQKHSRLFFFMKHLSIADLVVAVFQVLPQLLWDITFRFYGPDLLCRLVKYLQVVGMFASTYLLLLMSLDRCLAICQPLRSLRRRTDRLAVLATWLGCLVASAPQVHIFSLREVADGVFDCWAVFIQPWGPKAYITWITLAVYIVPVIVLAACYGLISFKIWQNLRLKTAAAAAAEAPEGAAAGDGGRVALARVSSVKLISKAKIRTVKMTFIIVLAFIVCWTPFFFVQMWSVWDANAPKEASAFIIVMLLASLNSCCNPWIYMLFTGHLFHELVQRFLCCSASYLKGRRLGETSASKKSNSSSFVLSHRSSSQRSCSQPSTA
Assay: Binding affinity to OTR (unknown origin)
measured property: Ki
In your response, put the unit directly after the numeric value.

Enquiry: Suppose we examine the compound "Cc1ccn(Cc2ccc(C(=O)N3Cc4cnn(C)c4Nc4ccccc43)cc2C)n1" ; what Ki value has been reported?
Return: 27.8 nM

###

target: Oxytocin receptor (Homo sapiens); assay: Competitive binding to SNAP-tagged oxytocin receptor (unknown origin) expressed in HEK293 cells incubated for 1 hr at RT followed by 4 hrs at 4 degC by TR-FRET assay in presence of 5-(3-(22-(3-carboxy-4-(3-oxo-3H-xanthen-9-yl)phenyl)-15,22-dioxo-2,5,8,11-tetraoxa-14,21-diazadocosyl)-5-(3-(2-chloro-4-fluorophenoxy)azetidin-1-yl)-4H-1,2,4-triazol-4-yl)-2-methoxypyridinium 2,2,2-trifluoroacetate; type: cell-based
measured property: pKi
Answer as the number alone; pKi is minus log10 of concentration in mol/L.

Enquiry: Return reported pKi; argument: "Cc1ccn(Cc2ccc(C(=O)N3Cc4cnn(C)c4Nc4ccccc43)cc2C)n1"
Return: 8.21

###

Molecular target: Vasopressin V1b receptor (Homo sapiens, UniProt P47901)
Sequence (P47901 whole entry): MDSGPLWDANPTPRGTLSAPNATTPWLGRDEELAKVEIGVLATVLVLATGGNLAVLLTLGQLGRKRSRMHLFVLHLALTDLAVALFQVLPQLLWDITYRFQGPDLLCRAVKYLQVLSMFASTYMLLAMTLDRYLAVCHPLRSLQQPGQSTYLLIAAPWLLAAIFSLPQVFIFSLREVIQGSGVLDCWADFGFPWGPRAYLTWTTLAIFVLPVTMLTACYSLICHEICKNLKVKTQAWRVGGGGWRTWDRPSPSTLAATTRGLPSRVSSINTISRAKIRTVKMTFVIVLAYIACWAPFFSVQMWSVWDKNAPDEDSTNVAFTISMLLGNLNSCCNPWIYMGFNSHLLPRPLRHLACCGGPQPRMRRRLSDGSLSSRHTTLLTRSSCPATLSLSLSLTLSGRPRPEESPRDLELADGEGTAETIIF
pKd: −log10 of the molar value.
Consider the following molecules; for each one, report its pKd.

Enquiry: Param item = "O=C(CCCCCNC(=O)c1ccc(-c2c3ccc(=O)cc-3oc3cc(O)ccc23)c(C(=O)O)c1)NCCNC(=O)CCc1ccc(S(=O)(=O)N(CC(=O)N/N=C2\C(=O)Nc3ccccc32)c2ccc(Cl)cc2)cc1" ; retrieve measured pKd.
Return: < 6.00

Enquiry: Next molecule up: "COc1ccc(-n2c(COCCOCCOCCOCCNC(=O)CCCCCNC(=O)c3ccc(-c4c5ccc(=O)cc-5oc5cc(O)ccc45)c(C(=O)O)c3)nnc2N2CC(Oc3ccc(F)cc3Cl)C2)cn1.O=C(O)C(F)(F)F"
Return: < 6.00

Enquiry: Another molecule to look at: CCN1\C(=C/C=C/C=C/C2=[N+](CC)c3cc(S(=O)(=O)[O-])ccc3C2(C)C)C(C)(CCCC(=O)NCCNC(=O)CCc2ccc(S(=O)(=O)N(CC(=O)N/N=C3\C(=O)Nc4ccccc43)c3ccc(Cl)cc3)cc2)c2cc(S(=O)(=O)O)ccc21 (centres undefined)
Return: < 6.00

Enquiry: Then what about the molecule CCN1\C(=C/C=C/C=C/C2=[N+](CC)c3cc(S(=O)(=O)[O-])ccc3C2(C)C)C(C)(CCCC(=O)NCCOCCOCCOCCOCc2nnc(N3CC(Oc4ccc(F)cc4Cl)C3)n2-c2ccc(OC)nc2)c2cc(S(=O)(=O)O)ccc21.O=C(O)C(F)(F)F (centres undefined) ?
Return: < 6.00

###

molecular target: UniProtKB P30559; test: Competitive binding to SNAP-tagged oxytocin receptor (unknown origin) expressed in HEK293 cells incubated for 1 hr at RT followed by 4 hrs at 4 degC by TR-FRET assay in presence of 2-(5-(3-(1-(5-(3-(2-chloro-4-fluorophenoxy)azetidin-1-yl)-4-(6-methoxypyridinium-3-yl)-4H-1,2,4-triazol-3-yl)-15-oxo-2,5,8,11-tetraoxa-14-azaoctadecan-18-yl)-1-ethyl-3-methyl-5-sulfoindolin-2-ylidene)penta-1,3-dienyl)-1 …; assay type: cell-based
measured property: Ki (nM)
Give just the number in nM; leave the unit off.

Enquiry: Short answer please: Ki, UniProtKB P30559, entry "Cc1ccn(Cc2ccc(C(=O)N3Cc4cnn(C)c4Nc4ccccc43)cc2C)n1"
Return: 6.6

###

experiment: Retention time of the compound by RP-HPLC analysis; assay type: physicochemical
measured property: Retention_time (min)
Use min as the unit, but write only the number.

Enquiry: Sample "COc1ccc(-n2c(COCCOCCOCCOCCOCCOCCOCCOCCNC(=O)CCCCCNC(=O)c3ccc(-c4c5ccc(=O)cc-5oc5cc(O)ccc45)c(C(=O)O)c3)nnc2N2CC(Oc3ccc(F)cc3Cl)C2)cn1.O=C(O)C(F)(F)F" — what was its Retention_time?
Return: 4.39

Enquiry: Can you handle "COc1ccc(-n2c(COCCOCCOCCOCCNC(=O)CCCCCNC(=O)c3ccc(-c4c5ccc(=O)cc-5oc5cc(O)ccc45)c(C(=O)O)c3)nnc2N2CC(Oc3ccc(F)cc3Cl)C2)cn1.O=C(O)C(F)(F)F" next?
Return: 4.38

Enquiry: Continue with CCN1\C(=C/C=C/C=C/C2=[N+](CC)c3cc(S(=O)(=O)[O-])ccc3C2(C)C)C(C)(CCCC(=O)NCCNC(=O)CCc2ccc(S(=O)(=O)N(CC(=O)N/N=C3\C(=O)Nc4ccccc43)c3ccc(Cl)cc3)cc2)c2cc(S(=O)(=O)O)ccc21 (stereo not drawn)
Return: 3.96

###

assay: Retention time of the compound by RP-HPLC analysis; type: physicochemical
Record form. Attribute: Retention_time. Fill in for each entry.
// note: answer is a bare numeric in min

Enquiry: Entry "O=C(CCCCCNC(=O)c1ccc2c(c1)C(=O)OC21c2ccc(O)cc2Oc2cc(O)ccc21)ON1C(=O)CCC1=O" has what Retention_time?
Return: 4

Enquiry: Same again, this time with CCN1\C(=C/C=C/C=C/C2=[N+](CC)c3cc(S(=O)(=O)[O-])ccc3C2(C)C)C(C)(CCCC(=O)ON2C(=O)CCC2=O)c2cc(S(=O)(=O)O)ccc21 (stereo not given)
Return: 3.17

Enquiry: # iterate: "O=C(CCCCCNC(=O)c1ccc(-c2c3ccc(=O)cc-3oc3cc(O)ccc23)c(C(=O)O)c1)NCCNC(=O)CCc1ccc(S(=O)(=O)N(CC(=O)N/N=C2\C(=O)Nc3ccccc32)c2ccc(Cl)cc2)cc1"
Return: 4.68

Enquiry: Repeat for the following compound: CCN1\C(=C/C=C/C=C/C2=[N+](CC)c3cc(S(=O)(=O)[O-])ccc3C2(C)C)C(C)(CCCC(=O)NCCOCCOCCOCCOCCOCCOCCOCCOCc2nnc(N3CC(Oc4ccc(F)cc4Cl)C3)n2-c2ccc(OC)nc2)c2cc(S(=O)(=O)O)ccc21.O=C(O)C(F)(F)F (stereo not given)
Return: 3.97

Enquiry: Query CCN1\C(=C/C=C/C=C/C2=[N+](CC)c3cc(S(=O)(=O)[O-])ccc3C2(C)C)C(C)(CCCC(=O)NCCOCCOCCOCCOCc2nnc(N3CC(Oc4ccc(F)cc4Cl)C3)n2-c2ccc(OC)nc2)c2cc(S(=O)(=O)O)ccc21.O=C(O)C(F)(F)F (stereo not given) next
Return: 3.94
